# maps each entry to its GI50
Test system: COLO 205
Assay: NCI tumour cell line growth inhibition, 48 h
The source made the active and inactive calls. Cut-off read from the data, not from the text of the source: active = GI50 up to about 1.1 µM and inactive = higher.

Compound | Assay system | GI50
COC(=O)c1ccc2cc(O)c(O)cc2c1 | COLO 205 | 37.9 µM (inactive)
CC(C)Cn1cnnc1NS(=O)(=O)c1cc(C(=O)NN)c(Cl)cc1S | COLO 205 | > 10 µM (inactive)
Cn1cc(C(=O)C2CCCCC2)ccc1=O | COLO 205 | > 100 µM (inactive)
CN1CCc2cc(O)c3cc2C1Cc1ccc(cc1)Oc1cc(ccc1O)CC1c2c(cc4c(c2O3)OCO4)CCN1C (stereo not given) | COLO 205 | 13.5 µM (inactive)
CCOC(=O)/C(C(=O)Nc1cccc(Cl)c1)=C(/N)N1CCCC1 | COLO 205 | > 100 µM (inactive)
C=C1C(=O)OC2/C=C(\C=O)CC/C=C(\C)C(O)C[C@@H]12 (stereo not given in full) | COLO 205 | 3.94 µM (inactive)
O=C(/C=C/c1ccc(Cl)cc1)Oc1ccc(C=C2CCC/C(=C\c3ccc(OC(=O)/C=C/c4ccc(Cl)cc4)cc3)C2=O)cc1 | COLO 205 | > 100 µM (inactive)
COC(=O)c1ccccc1CC1Cc2cc3c(cc2C1)CCC3 | COLO 205 | 23.8 µM (inactive)
O=C(NNC(=O)c1ccncc1)c1ccncc1 | COLO 205 | > 100 µM (inactive)
BrC12C3C4C5C(C(C43)C13OCCO3)C52 (stereo not given) | COLO 205 | > 100 µM (inactive)
C[n+]1c2ccccc2c(NC(CCCNC(=N)N)C(=O)O)c2ccccc21 (stereo not given) | COLO 205 | > 100 µM (inactive)
NC1CC(=O)c2c(Cl)sc(Cl)c21 (stereo not given) | COLO 205 | 1.63 µM (inactive)
Cn1cnc([N+](=O)[O-])c1Sc1nc(N)nc2c1ncn2[C@H]1C[C@H](O)[C@@H](CO)O1 | COLO 205 | 4.63 µM (inactive)
Nc1nc(Cl)cc(NC2(CO)CCC2)n1 | COLO 205 | > 100 µM (inactive)
N/N=C1N=C(Cl)/C(=C/c2ccco2)N\1 | COLO 205 | 43.1 µM (inactive)
NC1=NCC(CN2CCCCC2)O1 (stereo not given) | COLO 205 | > 100 µM (inactive)
N#CCC12CC=CCC1=C(O)C(=O)c1ccc(O)cc12 (stereo not given) | COLO 205 | > 100 µM (inactive)
CC1CC2C3CCC4=CC(=O)C=CC4(C)C3(F)C(O)CC2(C)C1(O)C(=O)CO.Cc1nnc(NS(=O)(=O)c2ccc(/N=N/c3cc(/N=N/c4ccc(S(=O)(=O)Nc5nnc(C)s5)cc4)c4c(NC(=O)C(Cl)Cl)cccc4c3OC(=O)C(Cl)Cl)cc2)s1 | COLO 205 | 12.1 µM (inactive)
COC(=O)C[C@H](COCc1ccccc1)NC(=O)C[C@H](COCc1ccccc1)NC(=O)C[C@H](COCc1ccccc1)NC(=O)OC(C)(C)C | COLO 205 | > 100 µM (inactive)
CCCCCCCCCCC/C=C(/C(=O)CCCO[Si](C)(C)C(C)(C)C)C(=O)OC | COLO 205 | > 100 µM (inactive)
N#CC(C#N)SCc1ccccc1 | COLO 205 | 15.6 µM (inactive)
COc1ccc(Nc2nc3ccccc3n3cccc23)cc1OC | COLO 205 | 14.4 µM (inactive)
N#CC1C(=S)NC(c2ccccc2)=CC12CCCCC2 (stereo not given) | COLO 205 | 30.1 µM (inactive)
CCOC(=O)N(C)C1(c2ccccc2)CCN(CCCC(=O)c2ccc(F)cc2)CC1 | COLO 205 | 15.4 µM (inactive)
COC(=O)c1cc(CC(C)C)c2c(c1)[nH]c1ccccc12 | COLO 205 | > 100 µM (inactive)
C1CN(P2(N3CC3)=NP(N3CC3)(N3CC3)=NP(N3CC3)(N3CC3)=N2)CCO1 (stereo not given) [FOTRETAMINE] | COLO 205 | > 100 µM (inactive)
O=[N+]([O-])c1ccc(/N=N/c2c(O)ccc3cc(S(=O)(=O)O)ccc23)cc1 | COLO 205 | > 100 µM (inactive)
CC(C)OP(=O)(OC(C)C)C1=NN(c2ccc([N+](=O)[O-])cc2)C(P(=O)(OC(C)C)OC(C)C)=NN1c1ccc([N+](=O)[O-])cc1 | COLO 205 | > 100 µM (inactive)
C/C1=C\CC[C@@]2(C)O[C@@H]2[C@H]2OC(=O)C(C)C2C[C@H]1O (stereo not given in full) | COLO 205 | > 100 µM (inactive)
O=S1(=O)OCCOS(=O)(=O)C1(Br)Br | COLO 205 | > 100 µM (inactive)
Nc1nc(N)c2cc(-c3cc4ccccc4[nH]3)ccc2n1 | COLO 205 | 10.3 µM (inactive)
CNc1nc(N)c(N=O)c(Nc2ccc(Br)cc2)n1 | COLO 205 | > 100 µM (inactive)
c1ccc(NNN2NC(c3ccccc3)C2c2ccccc2)cc1 (stereo not given) | COLO 205 | > 100 µM (inactive)
O=C1C(=C/C=C2/SC(c3ccccc3)(c3ccccc3)c3ccccc32)C(=O)c2ccccc21 | COLO 205 | > 100 µM (inactive)
C/C(=C/CC[C@]1(CO)CC[C@]2(CO)[C@H](CC[C@@H]3[C@@]4(C)CC[C@H](OC5OCC(O)C(O)C5OC5OC(CO)C(O)C(O)C5O)C(C)(C)[C@@H]4CC[C@]32C)[C@H]1O)CO (stereo not given in full) | COLO 205 | > 100 µM (inactive)
O=C(NCO)NCOCn1c(=O)n(CO)c(=O)n(CO)c1=O | COLO 205 | 27.4 µM (inactive)
CC1(C)CC(=O)c2c(nc3ccc4ccccc4c3c2-c2ccc(NC(=O)CCCCCCCCC(=O)Nc3ccc(-c4c5c(nc6ccc7ccccc7c46)CC(C)(C)CC5=O)cc3)cc2)C1 | COLO 205 | > 100 µM (inactive)
C[N+]12CCCCC1C(CN1C(=O)c3ccccc3C1=O)CCC2 (stereo not given) | COLO 205 | > 100 µM (inactive)
CC1=CC2CC(C)C1(C)CCc1ccoc12 (stereo not given) | COLO 205 | > 100 µM (inactive)
Clc1cccc(Cl)c1C1SCC2=Nc3ccccc3CN21 (stereo not given) | COLO 205 | 14.1 µM (inactive)
